Value source: PubChem BioAssay (NCI)

- Tested on: SW-620 colon
- run.description: NCI tumour cell line growth inhibition, 48 h
property.measured: TGI

The value of TGI measured for the molecule O=C1c2ccccc2-c2nc(-c3cccnc3)cc3c2c1nc1ccccc13 turned out to be > 100 µM

The value of TGI measured for the molecule O=C(CN1CCN(C(=O)OCc2ccccc2)CCN(CC(=O)N2CCCCC2)CCN(C(=O)OCc2ccccc2)CC1)N1CCCCC1 turned out to be > 53.5 µM

The value of TGI measured for the molecule CC1CCCC2=C1C(c1ccc(Cl)cc1)n1c(s/c(=C\c3ccc(Cl)cc3)c1=O)=N2 (stereo unspecified) turned out to be > 100 µM

The value of TGI measured for the molecule CC(C)(C)[Si](C)(C)OCCCC#CCO turned out to be > 100 µM

The value of TGI measured for the molecule Cn1c(=O)cc2c3c(c(NCCCO)ccc31)C(=O)c1ccccc1-2 turned out to be > 100 µM

The value of TGI measured for the molecule CC(C)CCC1(O)O[C@H]2C[C@H]3[C@@H]4CCC5CC(=O)C=C[C@]5(C)[C@H]4CC[C@]3(C)[C@H]2[C@@H]1C (stereo partly specified) turned out to be 26.4 µM

The value of TGI measured for the molecule NC1C/C(=N\O)c2c(I)sc(I)c21 (stereo unspecified) turned out to be 29.4 µM

The value of TGI measured for the molecule N=C(N)SCCc1cn2ccccc2n1 turned out to be > 100 µM

The value of TGI measured for the molecule C=C1CC(CCCl)(c2ccccc2)OC1=O (stereo unspecified) turned out to be 39.5 µM

The value of TGI measured for the molecule O=C(CSc1nc(=O)[nH]c2nc[nH]c12)Nc1ccccc1 turned out to be > 100 µM

The value of TGI measured for the molecule O=c1[nH]c2ccc(CC(=S)N3CCOCC3)cc2s1 turned out to be > 100 µM

The value of TGI measured for the molecule O=C1c2cc3ccccc3cc2C2(c3ccc(Cl)cc3)N[C@H]3CCCC[C@@H]3N12 (stereo partly specified) turned out to be 59.3 µM

The value of TGI measured for the molecule CCC(Sc1nnc2c3ccccc3n(CC)c2n1)C(=O)Nc1ccccc1OC (stereo unspecified) turned out to be > 100 µM

The value of TGI measured for the molecule C(=C1c2ccccc2-c2ccccc21)c1ccccn1 turned out to be 49.4 µM

The value of TGI measured for the molecule CCc1n[nH]c(=O)n1N1C(=O)C2CC=CCC2C1=O (stereo unspecified) turned out to be > 100 µM

The value of TGI measured for the molecule COC(=O)c1ccccc1NC(=O)/C(=N\NC(C)(C)C)C(C#N)c1nc(-c2ccc([N+](=O)[O-])cc2)cs1 (stereo unspecified) turned out to be > 100 µM
